- ASSAY_SYSTEM: T1, Chryseobacterium sp-62563 deamidase polypeptide (second polypeptide, deamidase domain), wildtype (Chryseobacterium sp-62563)
- T1 sequence: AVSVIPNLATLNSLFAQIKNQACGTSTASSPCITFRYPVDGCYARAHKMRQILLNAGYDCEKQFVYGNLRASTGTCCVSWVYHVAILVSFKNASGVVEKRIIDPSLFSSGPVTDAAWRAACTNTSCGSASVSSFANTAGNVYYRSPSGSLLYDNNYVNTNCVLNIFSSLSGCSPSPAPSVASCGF
- EXPERIMENTAL_DETAILS: cell-based or functional assay
Response field class: enum, chosen by comparing Relative activity of maturated deamidase (% initial rate) against range 1 = under 40, range 2 = from 40 up to 50, range 3 = 50 and over

1. Chryseobacterium sp-62563 propeptide E67P (protein) NQDPNLVAKESNETAMKDFGKTVPVGIEKEDGKFKISFMVTAQPYEIKDSKENAAYISMIKTAVENPTPIHVFLKANTNEIAKVDKATDDDIRYFKSVFTKEVKEENRK    range 3
2. Chryseobacterium sp-62563 propeptide A42K (protein) NQDPNLVAKESNETAMKDFGKTVPVGIEKEDGKFKISFMVTKQPYEIKDSKENAAYISMIKTAVENETPIHVFLKANTNEIAKVDKATDDDIRYFKSVFTKEVKEENRK    range 3
3. Chryseobacterium sp-62563 propeptide F38A (protein) NQDPNLVAKESNETAMKDFGKTVPVGIEKEDGKFKISAMVTAQPYEIKDSKENAAYISMIKTAVENETPIHVFLKANTNEIAKVDKATDDDIRYFKSVFTKEVKEENRK    range 3
4. Chryseobacterium sp-62563 propeptide F99G (protein) NQDPNLVAKESNETAMKDFGKTVPVGIEKEDGKFKISFMVTAQPYEIKDSKENAAYISMIKTAVENETPIHVFLKANTNEIAKVDKATDDDIRYFKSVGTKEVKEENRK    range 3
5. Chryseobacterium sp-62563 propeptide F95T (protein) NQDPNLVAKESNETAMKDFGKTVPVGIEKEDGKFKISFMVTAQPYEIKDSKENAAYISMIKTAVENETPIHVFLKANTNEIAKVDKATDDDIRYTKSVFTKEVKEENRK    range 3
6. Chryseobacterium sp-62563 propeptide K101M (protein) NQDPNLVAKESNETAMKDFGKTVPVGIEKEDGKFKISFMVTAQPYEIKDSKENAAYISMIKTAVENETPIHVFLKANTNEIAKVDKATDDDIRYFKSVFTMEVKEENRK    range 1
7. Chryseobacterium sp-62563 propeptide F95R (protein) NQDPNLVAKESNETAMKDFGKTVPVGIEKEDGKFKISFMVTAQPYEIKDSKENAAYISMIKTAVENETPIHVFLKANTNEIAKVDKATDDDIRYRKSVFTKEVKEENRK    range 3
8. Chryseobacterium sp-62563 propeptide F95D (protein) NQDPNLVAKESNETAMKDFGKTVPVGIEKEDGKFKISFMVTAQPYEIKDSKENAAYISMIKTAVENETPIHVFLKANTNEIAKVDKATDDDIRYDKSVFTKEVKEENRK    range 2
9. Chryseobacterium sp-62563 propeptide D91S (protein) NQDPNLVAKESNETAMKDFGKTVPVGIEKEDGKFKISFMVTAQPYEIKDSKENAAYISMIKTAVENETPIHVFLKANTNEIAKVDKATDDSIRYFKSVFTKEVKEENRK    range 2
10. Chryseobacterium sp-62563 propeptide V98R (protein) NQDPNLVAKESNETAMKDFGKTVPVGIEKEDGKFKISFMVTAQPYEIKDSKENAAYISMIKTAVENETPIHVFLKANTNEIAKVDKATDDDIRYFKSRFTKEVKEENRK    range 3
11. Chryseobacterium sp-62563 propeptide K101I (protein) NQDPNLVAKESNETAMKDFGKTVPVGIEKEDGKFKISFMVTAQPYEIKDSKENAAYISMIKTAVENETPIHVFLKANTNEIAKVDKATDDDIRYFKSVFTIEVKEENRK    range 1
12. Chryseobacterium sp-62563 propeptide D90P (protein) NQDPNLVAKESNETAMKDFGKTVPVGIEKEDGKFKISFMVTAQPYEIKDSKENAAYISMIKTAVENETPIHVFLKANTNEIAKVDKATDPDIRYFKSVFTKEVKEENRK    range 3
13. Chryseobacterium sp-62563 propeptide E67G (protein) NQDPNLVAKESNETAMKDFGKTVPVGIEKEDGKFKISFMVTAQPYEIKDSKENAAYISMIKTAVENGTPIHVFLKANTNEIAKVDKATDDDIRYFKSVFTKEVKEENRK    range 3
